Cited source: patent US20070167631A1

System: Chenopodium
Assay: Pre-emergence herbicidal action (Example B1)
Assay type: in vivo
Details: 250 g/ha, after 4 weeks, rating scale 10=total damage, 0=no action
readout.name: Pre-emergence action: Chenopodium
When you answer, write just the number.

CCC(=O)N(C)c1nc(C(=O)C2=C(O)C(C)(C)C(=O)C(C)(C)C2=O)ccc1C(F)(F)F :: 0

I looked up CC(=O)N(C)c1nc(C(=O)C2=C(O)C(C)(C)C(=O)C(C)(C)C2=O)ccc1C(F)(F)F and its Pre-emergence action: Chenopodium for Chenopodium was 7

// molecule O=C1CCCC(O)=C1C(=O)c1ccc(C(F)(F)F)c(N2CCSCC2)n1 , assay Chenopodium, Pre-emergence action: Chenopodium value: 9

Pre-emergence action: Chenopodium on Chenopodium for CC1CC(=O)C(C(=O)c2ccc(C(F)(F)F)c(N3CCOCC3)n2)=C(O)C1 (stereo not shown) is 6

The reported Chenopodium Pre-emergence action: Chenopodium of CC1(C)CCC(O)=C(C(=O)c2ccc(C(F)(F)F)c(N3CCOCC3)n2)C1=O is 8

Simply: CC1(C)C(=O)C(C(=O)c2ccc(C(F)(F)F)c(OC3CCOC3)n2)=C(O)C(C)(C)C1=O (stereo not shown) , Chenopodium, Pre-emergence action: Chenopodium = 9

The measured Pre-emergence action: Chenopodium that CC1(C)C(=O)C(C(=O)c2ccc(C(F)(F)F)c(C3(C)OCCO3)n2)=C(O)C(C)(C)C1=O showed for Chenopodium is 9

---

Test system: Chenopodium
Test: Pre-emergence herbicidal action (Example B1)
Type: in vivo
Conditions: 250 g/ha, after 4 weeks, rating scale 10=total damage, 0=no action
Catalogue of Pre-emergence action: Chenopodium readings, one per entry.
Answer with a bare number; do not write a unit.

Input COCCOCc1nc(C(=O)C2=C(O)CCCC2=O)ccc1C(F)(F)F [Compound 1.126] . Output Pre-emergence action: Chenopodium: 10

Summary for this compound, Cc1nc(C(=O)C2=C(O)C(C)(C)C(=O)C(C)(C)C2=O)ccc1C#N [Compound 2.209] : Pre-emergence action: Chenopodium is 9

The reported value for CC1CC(O)=C(C(=O)c2ccc(C(F)(F)F)c(N3CCOCC3)n2)C(=O)C1(C)C (stereo not shown) [Compound 3.073] in terms of Pre-emergence action: Chenopodium is 7

The compound listed as CN(C)c1nc(C(=O)C2=C(O)C(C)(C)C(=O)C(C)(C)C2=O)ccc1C(F)(F)F [Compound 2.059] has a reported Pre-emergence action: Chenopodium of 9

Input O=C1CCCC(O)=C1C(=O)c1ccc(C(F)(F)F)c(N2CCOCC2)n1 [Compound 1.073] . Output Pre-emergence action: Chenopodium: 10

Kindly note the recorded Pre-emergence action: Chenopodium for CC1(C)C(=O)C(C(=O)c2ccc(C(F)(F)F)c(N3CCOCC3)n2)=C(O)C(C)(C)C1=O [Compound 2.073] , which is 9

For this compound ( CC1CCC(O)=C(C(=O)c2ccc(C(F)(F)F)c(N3CCOCC3)n2)C1=O (stereo not shown) [Compound 3.071] ), measured Pre-emergence action: Chenopodium is 6

compound CC1(C)C(=O)C(C(=O)c2ccc(C(F)(F)F)c(N3CCSCC3)n2)=C(O)C(C)(C)C1=O [Compound 2.078] , Pre-emergence action: Chenopodium observed: 10

Per the record, CC1CN(c2nc(C(=O)C3=C(O)CCCC3=O)ccc2C(F)(F)F)CC(C)O1 (stereo not shown) [Compound 1.075] has Pre-emergence action: Chenopodium of 9

Lab note: COC(COc1nc(C(=O)C2=C(O)CCCC2=O)ccc1C(F)(F)F)OC [Compound 1.012] gave Pre-emergence action: Chenopodium of 0
